Origin of the recorded values: PubChem BioAssay (NCI)

# System: PC-3 prostate
# PROCEDURE TEXT: NCI-60 one-dose screen, 48 h (100 = growth as untreated, 0 = no growth, -100 = all killed)
# STUDY CONDITIONS: 10 µM unless noted
About 83,000 compounds went through this panel and 20% of them were active in at least one assay; those are over-represented in the sample as a whole.
In plain terms, low growth, meaning strictly below 60%, gives t, and everything else gives f.

Field: example entries. Status: answers known.
c1ccc(-c2nnc(Nc3nnc(-c4ccccc4)s3)s2)cc1 :: f
COc1ccc2c(c1)[nH]c(=O)c1c3cc(OC)c(OC)cc3cn21 :: t
O=C(CCc1nnc2sc(-c3ccc(Cl)cc3Cl)nn12)c1nc2ccccc2[nH]1 :: t
Cn1c(=O)c2nc(SCc3ccccc3)n(C)c2n(C)c1=O :: f
COc1ccc(-c2nnc(COc3ccc(NC(=O)Nc4cc(C(F)(F)F)cc(C(F)(F)F)c4)cc3F)o2)cc1 :: t
O=[N+]([O-])c1cnc(Sc2ccncn2)c([N+](=O)[O-])c1 :: f
Cc1nn(-c2ccc(Cl)cc2)c2nc3c(nc12)C(=O)c1ccccc1-3 :: t
CCN(CC)c1ccc(N=Nc2cc(Cl)ccc2Cl)c(NC(=O)CCC(=O)O)c1 :: f

**Q:** Is growth strictly under 60% for the entry COc1c(O)cc2oc3cc(O)c(CC=C(C)C)c(O)c3c(=O)c2c1C/C=C(\C)CCC=C(C)C ?
**A:** t
